Values compiled from ChEMBL document CHEMBL1909046.

# Ki measurements, system: Androgen receptor (Rattus norvegicus, UniProt P15207); further: in other assays of this panel Not Active means under 50% inhibition at 10 µM
# Sequence (P15207 whole entry S389L): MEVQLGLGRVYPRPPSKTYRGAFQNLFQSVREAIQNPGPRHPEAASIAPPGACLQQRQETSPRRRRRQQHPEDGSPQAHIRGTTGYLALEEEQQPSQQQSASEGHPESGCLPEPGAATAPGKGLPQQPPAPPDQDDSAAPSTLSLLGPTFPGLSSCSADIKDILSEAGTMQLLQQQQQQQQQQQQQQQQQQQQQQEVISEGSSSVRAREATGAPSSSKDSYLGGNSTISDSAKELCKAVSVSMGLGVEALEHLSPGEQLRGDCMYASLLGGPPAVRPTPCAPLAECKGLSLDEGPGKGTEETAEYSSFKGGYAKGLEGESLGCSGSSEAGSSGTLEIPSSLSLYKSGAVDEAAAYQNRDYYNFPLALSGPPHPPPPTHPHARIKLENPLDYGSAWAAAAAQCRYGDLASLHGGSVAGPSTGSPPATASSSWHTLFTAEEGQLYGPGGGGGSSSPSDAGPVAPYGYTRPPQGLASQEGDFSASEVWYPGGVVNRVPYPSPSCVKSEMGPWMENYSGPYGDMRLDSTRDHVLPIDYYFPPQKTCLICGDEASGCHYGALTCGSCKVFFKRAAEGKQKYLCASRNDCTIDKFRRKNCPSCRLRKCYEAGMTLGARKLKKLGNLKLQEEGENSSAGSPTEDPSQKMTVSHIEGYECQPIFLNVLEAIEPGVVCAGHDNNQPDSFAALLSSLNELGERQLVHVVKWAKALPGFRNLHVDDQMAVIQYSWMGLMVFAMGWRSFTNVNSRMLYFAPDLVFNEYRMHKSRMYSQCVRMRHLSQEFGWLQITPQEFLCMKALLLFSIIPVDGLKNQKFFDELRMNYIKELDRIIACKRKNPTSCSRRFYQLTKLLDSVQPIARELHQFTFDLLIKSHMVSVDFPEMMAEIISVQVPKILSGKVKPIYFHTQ
I only need the number, in µM, no unit after it.

Look over these answered cases.
S=C=Nc1cccc2ccccc12 [1-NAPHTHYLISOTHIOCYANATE]
17
C[C@]12CC[C@@H]3c4ccc(OC(=O)c5ccccc5)cc4CC[C@H]3[C@@H]1CC[C@@H]2O [ESTRADIOL BENZOATE]
0.00698

Value of Ki reported for the compound CN(C)c1ccc(C(=C2C=CC(=[N+](C)C)C=C2)c2ccc(N(C)C)cc2)cc1.[Cl-] [GENTIAN VIOLET] is 3.71

----------
Assay: DRUGMATRIX: Tumor Necrosis Factor (TNF), Non-Selective radioligand binding (ligand: [125I] TNF-alpha)
Type: cell membranes, Membrane
Conditions: u-937; Not Active = under 50% inhibition at 10 µM
valueKind: Ki

C=C1CC[C@H](O)C/C1=C/C=C1\CCC[C@]2(C)[C@@H]([C@H](C)CCCC(C)C)CC[C@@H]12 [CHOLECALCIFEROL]
Not Active
CC(C(=O)O)c1cccc(C(=O)c2ccccc2)c1 (stereo not drawn) [KETOPROFEN]
Not Active
O=C1CC2(CCCC2)CC(=O)N1CCCCN1CCN(c2ncccn2)CC1 [BUSPIRONE]
Not Active
